B1: HDV Ribozyme (parent)
chain: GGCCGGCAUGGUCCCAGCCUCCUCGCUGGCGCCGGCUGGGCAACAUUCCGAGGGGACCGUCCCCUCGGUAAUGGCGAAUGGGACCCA

variants of: B1; test: self-cleavage, relative activity (ratio to wild type); higher = more cleavage; co-transcriptional
Reported property: self-cleavage
Lab note: jot down the number only; don't add units.

Reported self-cleavage of U47C U79C : 0.297

Reported self-cleavage of G81U G82C : 0.297

Reported self-cleavage of C7G G55A : 0.302

Value source: the RNAGym collection of RNA variant scans (doi:10.7554/elife.80360)
